target: CB2 receptor (Homo sapiens); construct: expressed in transfected cells; experiment: Binding assay for CB2 agonists or inverse agonists (SK-N-MC membranes, [3H]-CP-55,940); settings: test concentration not stated
Sequence (P34972 whole entry): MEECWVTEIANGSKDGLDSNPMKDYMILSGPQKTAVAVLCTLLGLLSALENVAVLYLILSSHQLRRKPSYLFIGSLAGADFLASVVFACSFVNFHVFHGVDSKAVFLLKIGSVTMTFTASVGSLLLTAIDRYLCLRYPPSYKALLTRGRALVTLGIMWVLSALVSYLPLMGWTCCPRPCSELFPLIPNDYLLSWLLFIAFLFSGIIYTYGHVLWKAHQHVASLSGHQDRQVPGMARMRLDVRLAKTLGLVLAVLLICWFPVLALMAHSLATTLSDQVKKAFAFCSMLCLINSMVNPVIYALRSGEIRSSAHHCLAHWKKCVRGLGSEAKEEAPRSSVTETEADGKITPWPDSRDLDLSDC
Property Measured: CB2 receptor binding percent inhibition
Please provide the amount together with its unit, number first.

Here's what some known entries look like.
Query (compound): Cn1nc(/C=C/S(=O)(=O)NN2CCCCC2)c2c1C(Cc1cccc(F)c1)CCCC2 (stereo not drawn) ; field requested: CB2 receptor binding percent inhibition 47%

Query (compound): O=C(N[C@@H]1c2ccccc2C[C@@H]1O)c1nn(C2CCCCC2)c2c1CCCCC2Cc1ccc(F)cc1 (relative stereo) ; field requested: CB2 receptor binding percent inhibition 95%

Okay, next one:
Query (compound): COC(=O)[C@@H](Cc1ccc(O)cc1)NC(=O)c1nn(-c2ccc(F)cc2F)c2c1CCCCC2Cc1ccc(F)cc1 (stereo partly drawn) ; field requested: CB2 receptor binding percent inhibition 43%
